QUANTITY_MEASURED: melting point

Examples with answers:
COMPOUND	RESULT
Cn1c(=O)n(CCC[C@@H](NS(=O)(=O)c2ccc(-c3ccc(Cl)cc3)cc2)C(=O)NO)c(=O)c2ccccc21	235 °C
O=C(NO)[C@@H](CC(=O)N1CCOCC1)NS(=O)(=O)c1ccc(-c2ccc(Cl)cc2)cc1	139 to 141 °C
O=C(O)[C@@H](CC(=O)N1CCOCC1)NS(=O)(=O)c1ccc(-c2ccc(Cl)cc2)cc1	144 to 146 °C
CN1C(=O)N(CC(NS(=O)(=O)c2ccc(-c3ccc(Cl)cc3)cc2)C(=O)O)C(=O)C1(C)C (stereo not shown)	198 to 201 °C
O=C(O)[C@@H](CC(=O)N1CCOCC1)NS(=O)(=O)c1ccc(Oc2ccccc2)cc1	147 to 149 °C

Kindly indicate its recorded melting point. Item: Cc1ccc(S(=O)(=O)NCCC[C@@H](NS(=O)(=O)c2ccc(-c3ccc(Cl)cc3)cc2)C(=O)O)cc1
62 °C

Please give the documented melting point of Cn1c(=O)n(CCCCC(NS(=O)(=O)c2ccc(-c3ccc(Cl)cc3)cc2)C(=O)O)c(=O)c2ccccc21 (stereo not shown)
208 to 210 °C

---

Recorded melting point values for a group of compounds are listed next.

COMPOUND	RESULT
Cn1c(=O)n(CC(NS(=O)(=O)c2ccc(-c3ccc(Cl)cc3)cc2)C(=O)O)c(=O)c2ccccc21 (stereo not drawn)	218 °C (dec.)
Cn1c(=O)n(CCC[C@@H](NS(=O)(=O)c2ccc(-c3ccccc3)cc2)C(=O)NO)c(=O)c2ccccc21	202 to 203 °C
CC1(C)NC(=O)N(CCCCC(NS(=O)(=O)c2ccc(-c3ccc(Cl)cc3)cc2)C(=O)O)C1=O (stereo not drawn)	78 to 80 °C

Quickly give me recorded melting point for O=C(NO)[C@@H](CC(=O)N1CCOCC1)NS(=O)(=O)c1ccc(Oc2ccccc2)cc1
161 to 163 °C

Complete the entry with melting point for O=C(NO)[C@@H](CCCN1C(=O)c2ccccc2S1(=O)=O)NS(=O)(=O)c1ccc(-c2ccc(Cl)cc2)cc1
200 to 205 °C (dec.)

Identify melting point associated with the compound CN1C(=O)N(CC[C@@H](NS(=O)(=O)c2ccc(-c3ccc(Cl)cc3)cc2)C(=O)NO)C(=O)C1(C)C
117 to 120 °C

---

QUANTITY_MEASURED: melting point

SMILES	melting point
Cn1c(=O)n(CCC[C@@H](NS(=O)(=O)c2ccc(-c3ccccc3)cc2)C(=O)O)c(=O)c2ccccc21	222 to 224 °C
O=C(O)[C@@H](CCN1C(=O)[C@@H]2Cc3ccccc3CN2C1=O)NS(=O)(=O)c1ccc(-c2ccc(Cl)cc2)cc1	70 °C
O=C(O)[C@@H](CCCN1C(=O)c2ccccc2S1(=O)=O)NS(=O)(=O)c1ccc(-c2ccc(Cl)cc2)cc1	177 to 179 °C
CN1C(=O)N(CC[C@@H](NS(=O)(=O)c2ccc(-c3ccc(Cl)cc3)cc2)C(=O)O)C(=O)C1(C)C	43 °C
O=C(O)[C@@H](CCCN1C(=O)c2ccccc2C1=O)NS(=O)(=O)c1ccc(-c2ccc(Cl)cc2)cc1	179 to 181 °C
Cn1c(=O)n(CCC[C@@H](NS(=O)(=O)c2ccc(-c3ccc(Cl)cc3)cc2)C(=O)O)c(=O)c2ccccc21	188 to 191 °C

Shifting focus to the compound that follows.
Name the recorded melting point of the item O=C(NO)[C@@H](CCCN1C(=O)c2ccccc2C1=O)NS(=O)(=O)c1ccc(-c2ccc(Cl)cc2)cc1 in your answer.
204 to 206 °C (dec.)
